- System: MS2 coat protein
- experiment-description: apparent KD of MS2 coat protein; designed switch direction (-1 OFF switch, 1 ON switch): 1; higher = weaker reporter binding
- stated-conditions: Eterna round: R95; input ligand: none
measurement-label: apparent KD of MS2 coat protein (nM)
Return type: number; implicit unit nM.

Some sequences with recorded apparent KD of MS2 coat protein:
{"primary-sequence": "UGGAUCUAGGCUUGCCUGGGUCCAUGUUGACAUGAGGAUCACCCAUGUGUAUUUUUUUUGCUUUUUGUUUGUCAACU [JL A Humble Attempt mod 11] (puzzle: Sensor for hsa-mir-208a)", "apparent KD of MS2 coat protein, nM": 26.5}
{"primary-sequence": "GUGGUGUAGAUACAGGAUAUGUUGCUCGUAACAUGAGGAUCACCCAUGUAUAUAUGAGAUUAAAUGCAGAAGGGUGCACACCACG [Mat - Same State 2 - Mod of UCT - D76] (puzzle: Same State 2)", "apparent KD of MS2 coat protein, nM": 13.3}
{"primary-sequence": "CAAGGACGGACACAGGAUAUCCUCACCUACACAUGAGGAUCACCCAUGUCAUAAAAGAUGGUGCAGGAGAAGGGUGCGGCGUCAA [Zarelaesdi] (puzzle: Same State 2)", "apparent KD of MS2 coat protein, nM": 6.36}

Name the recorded apparent KD of MS2 coat protein for AAGUAACAUGAGGAUCACCCAUGUGAGGUGAGCGUAGGAUAUCGAGAAGGAAGGGUGGAGCGAGAAGGACGAGAGG [JR_SS1_Sub0100] (puzzle: Same State 1) .
270

Name the recorded apparent KD of MS2 coat protein for GCCGCACAUGAGGAUCACCCAUGUAAUUACAUGGGAGGAUAUCAGUGCUCGAAAGAGCACUGAGAAGGCCUGUGGC [SS1 - Omei A v2] (puzzle: Same State 1) .
39

---

- System: K4 kissing-loop RNA reporter;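 also: bound reporter read as fluorescence of individual clusters on recovered sequencing chips by microscopy, with normalized cluster intensities fitted with a binding model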
- experiment-description: apparent KD of K4 kissing-loop reporter; higher = weaker reporter binding
- stated-conditions: Eterna round: R107; input ligand: theophylline 20 uM
Known apparent KD of K4 kissing-loop reporter of a selection of sequences
Return type: number; implicit unit nM.

Some sequences with recorded apparent KD of K4 kissing-loop reporter:
{"primary-sequence": "UAUAAGCGCAGAGGAUAUACUAGCUUUCACUAGUGCAGUGAUGUUGCACUAGACCAGCUGUACAUAGUAGAAGGCUGCGUUCCUU [FMN B SS t1]", "tgt": "K4 kissing-loop RNA reporter", "readout-value": 131}
{"primary-sequence": "UCUGUUUCGAUGGAUACCAGUCGGCGAAUCACAGCUAUUAGCCUAGUGAUGUUAGGAUCGGACCCUUGGCAGCCAAUGGAUGCGG [theeternabot_sameState_KL_Theo_B_14]", "tgt": "K4 kissing-loop RNA reporter", "readout-value": 1270}
{"primary-sequence": "AAGCGUAAAAUGGCGGACAUACUGCUCCCACGAGGACCGGUACGGCCGCCACUCGAAUGCGGCAGUGAUGUUGCCGCCUUAGCGU [KL-XTryp-A19]", "tgt": "K4 kissing-loop RNA reporter", "readout-value": 75.2}
{"primary-sequence": "UUAUAACCCAGUGAUGUUGGGUAGCGGCCACGAGGACCGGUACGGCCGCCACUCGAGGUUUGACCAGUGAUGUUGGACUAUUUGG [Same state Tryptophan A GF 5]", "tgt": "K4 kissing-loop RNA reporter", "readout-value": 147}
{"primary-sequence": "CGCGACGUGGUCACGCCAGUCUCGUUAACCAAGGAUAUUGAGAAGACAAGAAGGUGGAUGUACCAUAGUGAUGUUGUGGUCAGUA [theeternabot_sameState_KL_FMN_A_17]", "tgt": "K4 kissing-loop RNA reporter", "readout-value": 448}

Now examine the next entry.
Name the recorded apparent KD of K4 kissing-loop reporter for UUUAAAUAUAGUGAUGUUAUAUAACAAUGACGAGGACCGGUACGGCCGCCACUCGAGAGAGAUAAUGGUCUUACAAAUGUAAGUU [AstrosSSTryA#9] .
822
